Sourced from patent US20230061973A1

# targetOfAssay: T1, exemplary TAT frataxin fusion molecule (HIV-1, UniProt Q16595 1-210)
# T1 construct: in the bridging assays biotinylated and sulfotagged forms were used; also called TAT-FXN fusion molecule; TAT FXN fusion molecule
# T1 sequence: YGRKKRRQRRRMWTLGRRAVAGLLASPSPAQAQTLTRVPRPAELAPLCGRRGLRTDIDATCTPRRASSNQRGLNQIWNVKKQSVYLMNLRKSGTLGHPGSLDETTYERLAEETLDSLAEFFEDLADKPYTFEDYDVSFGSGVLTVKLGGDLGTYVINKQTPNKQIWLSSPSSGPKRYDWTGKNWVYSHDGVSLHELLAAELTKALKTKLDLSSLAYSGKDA
# testName: PK sandwich ELISA in human plasma, antibody as capture, HRP anti-frataxin mAb detection
S/N at plasma conc. 51.2 ng/mL reference
Please reply with the value in numeric form only.

{"columns": ["binder", "testReadout", "numericReadout"],
 "data": [
  ["antibody 10-9 (antibody, V domains shown, Rabbit monoclonal) VH: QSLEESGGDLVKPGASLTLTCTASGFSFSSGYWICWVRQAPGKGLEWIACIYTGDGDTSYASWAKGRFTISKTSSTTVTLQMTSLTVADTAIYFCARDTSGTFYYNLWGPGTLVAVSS VL: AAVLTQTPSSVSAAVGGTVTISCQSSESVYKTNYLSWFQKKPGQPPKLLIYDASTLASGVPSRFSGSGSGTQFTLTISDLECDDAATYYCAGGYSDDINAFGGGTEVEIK", "S/N at plasma conc. 51.2 ng/mL", 59],
  ["antibody 10-1 (antibody, V domains shown, Rabbit monoclonal) VH: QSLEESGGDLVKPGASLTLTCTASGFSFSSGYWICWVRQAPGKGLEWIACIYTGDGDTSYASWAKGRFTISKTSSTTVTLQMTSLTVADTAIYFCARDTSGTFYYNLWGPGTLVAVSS VL: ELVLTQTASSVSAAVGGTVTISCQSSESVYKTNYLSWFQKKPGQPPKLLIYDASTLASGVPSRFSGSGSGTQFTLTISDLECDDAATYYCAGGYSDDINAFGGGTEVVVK", "S/N at plasma conc. 51.2 ng/mL", 57.7]
]}

Now let's try a different one.
Inquiry: Given the binder antibody 10-12 (antibody, V domains shown, Rabbit monoclonal) VH: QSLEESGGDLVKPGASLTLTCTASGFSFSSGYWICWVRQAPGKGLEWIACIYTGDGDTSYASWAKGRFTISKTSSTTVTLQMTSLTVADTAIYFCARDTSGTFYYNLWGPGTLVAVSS VL: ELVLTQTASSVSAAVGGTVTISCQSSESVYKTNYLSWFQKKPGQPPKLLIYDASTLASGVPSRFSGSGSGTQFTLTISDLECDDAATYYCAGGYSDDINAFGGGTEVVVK , what is its reported S/N at plasma conc. 51.2 ng/mL?
Reply text: 60
